target: Akt1 (Homo sapiens (Human))
assaySummary: Akt1 kinase assay (Akt1 TR-FRET assay)
conditionDescription: His-tagged human recombinant full-length Akt1, 10 μM ATP, 1 μM peptide substrate
Source text: Biological Assay 1.0: Akt1 Kinase Assay Akt1 inhibitory activity of compounds of the present invention was quantified employing the Akt1 TR-FRET assay as described in the following paragraphs. His-tagged human recombinant kinase full-length Akt1 expressed in insect cells was purchased form Invitrogen (part number PV 3599). […]
measurementType: pIC50
The meaning of pIC50 here: minus log10 of the concentration in molar units.

For COC(=O)c1cccc(-c2ccc3nn4cc(-c5ccccc5)c(-c5ccc(C6(N)CCC6)cc5)nc4c3c2)c1 [Example 5.2] the compound record lists pIC50 as 6.89

For CS(=O)(=O)c1cccc(-c2cccc3c2nn2cc(-c4ccccc4)c(-c4ccc(C5(N)CCC5)cc4)nc32)c1 [Example 8.4] the compound record lists pIC50 as 4.77

For NC1(c2ccc(-c3nc4c5cc(-c6ccc(S(N)(=O)=O)cc6)ccc5nn4cc3-c3ccccc3)cc2)CCC1 [Example 6.5] the compound record lists pIC50 as 7.51

For Cc1cc(-c2ccc3c(c2)nn2cc(-c4ccccc4)c(-c4ccc(C5(N)CCC5)cc4)nc32)[nH]n1 [Example 15.1] the compound record lists pIC50 as 8.00

For NC1(c2ccc(-c3nc4c5ccc(-c6cn[nH]c6)cc5nn4cc3-c3ccccc3)cc2)CCC1 [Example 4.11] the compound record lists pIC50 as 7.77

For CS(=O)(=O)c1cccc(-c2ccc3c(c2)nn2cc(-c4ccccc4)c(-c4ccc(C5(N)CCC5)cc4)nc32)c1 [Example 4.7] the compound record lists pIC50 as 7.60

For Cc1cc(-c2ccc3nn4cc(-c5ccccc5)c(-c5ccc(C6(N)CCC6)cc5)nc4c3c2)[nH]n1 [Example 15.3] the compound record lists pIC50 as 8.22

For CS(=O)(=O)c1ccc(-c2ccc3c(c2)nn2cc(-c4ccccc4)c(-c4ccc(C5(N)CCC5)cc4)nc32)cc1 [Example 4.1] the compound record lists pIC50 as 7.23

* * *

Can you tell me pIC50 for the items I'm about to list?
target: Akt1 (Homo sapiens (Human), UniProt P31749)
Sequence (P31749 whole entry): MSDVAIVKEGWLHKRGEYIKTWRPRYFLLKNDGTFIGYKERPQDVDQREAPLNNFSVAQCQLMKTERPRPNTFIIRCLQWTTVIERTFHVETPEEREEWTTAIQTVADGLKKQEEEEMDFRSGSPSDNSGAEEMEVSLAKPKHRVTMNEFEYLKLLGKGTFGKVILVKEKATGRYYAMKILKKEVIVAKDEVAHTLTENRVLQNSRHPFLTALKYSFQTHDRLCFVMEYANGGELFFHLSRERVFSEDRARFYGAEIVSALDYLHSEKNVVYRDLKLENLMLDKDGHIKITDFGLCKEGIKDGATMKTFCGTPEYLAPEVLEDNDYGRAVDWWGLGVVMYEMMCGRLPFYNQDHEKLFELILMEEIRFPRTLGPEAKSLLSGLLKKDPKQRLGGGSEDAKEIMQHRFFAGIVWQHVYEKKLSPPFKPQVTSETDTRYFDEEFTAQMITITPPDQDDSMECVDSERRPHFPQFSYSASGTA
assaySummary: Akt1 kinase assay (Akt1 TR-FRET assay)
conditionDescription: His-tagged human recombinant full-length Akt1, 10 μM ATP, 1 μM peptide substrate
Structures can show the parent of a compound that is named as a salt.
The meaning of pIC50 here: minus log10 of the concentration in molar units.

Reading of pIC50 for "COC(=O)/C=C/c1ccc2nn3cc(-c4ccccc4)c(-c4ccc(C5(N)CCC5)cc4)nc3c2c1" with Akt1 (Homo sapiens (Human), UniProt P31749): 8.00

Reading of pIC50 for "NC1(c2ccc(-c3nc4c5cc(-c6cccc(CO)c6)ccc5nn4cc3-c3ccccc3)cc2)CCC1" with Akt1 (Homo sapiens (Human), UniProt P31749): 7.80

Reading of pIC50 for "NC1(c2ccc(-c3nc4c5cccc(-c6ccc(F)cc6)c5nn4cc3-c3ccccc3)cc2)CCC1" with Akt1 (Homo sapiens (Human), UniProt P31749): 5.25

Reading of pIC50 for "NC1(c2ccc(-c3nc4c5ccc(-c6ccc(F)c(CO)c6)cc5nn4cc3-c3ccccc3)cc2)CCC1" with Akt1 (Homo sapiens (Human), UniProt P31749): 7.37

Reading of pIC50 for "N#Cc1cccc(-c2ccc3c(c2)nn2cc(-c4ccccc4)c(-c4ccc(C5(N)CCC5)cc4)nc32)c1" with Akt1 (Homo sapiens (Human), UniProt P31749): 6.85

Reading of pIC50 for "NC1(c2ccc(-c3nc4c5cccc(-c6cn[nH]c6)c5nn4cc3-c3ccccc3)cc2)CCC1" with Akt1 (Homo sapiens (Human), UniProt P31749): 6.80

Reading of pIC50 for "Cc1ccc(-c2ccc3nn4cc(-c5ccccc5)c(-c5ccc(C6(N)CCC6)cc5)nc4c3c2)cc1" with Akt1 (Homo sapiens (Human), UniProt P31749): 6.92

Reading of pIC50 for "NC1(c2ccc(-c3nc4c5cc(-c6cn[nH]c6)ccc5nn4cc3-c3ccccc3)cc2)CCC1" with Akt1 (Homo sapiens (Human), UniProt P31749): 7.72

Reading of pIC50 for "NC(=O)/C=C/c1cccc2c1nn1cc(-c3ccccc3)c(-c3ccc(C4(N)CCC4)cc3)nc21" with Akt1 (Homo sapiens (Human), UniProt P31749): 6.24

Reading of pIC50 for "NC1(c2ccc(-c3nc4c5cccc(-c6ccc(CO)cc6)c5nn4cc3-c3ccccc3)cc2)CCC1" with Akt1 (Homo sapiens (Human), UniProt P31749): 6.14

Reading of pIC50 for "NC1(c2ccc(-c3nc4c5cc(F)ccc5nn4c(NC4CC4)c3-c3ccccc3)cc2)CCC1" with Akt1 (Homo sapiens (Human), UniProt P31749): 6.28

Reading of pIC50 for "NC1(c2ccc(-c3nc4c5ccc(-c6ccc(F)c(O)c6)cc5nn4cc3-c3ccccc3)cc2)CCC1" with Akt1 (Homo sapiens (Human), UniProt P31749): 7.46

Reading of pIC50 for "NC1(c2ccc(-c3nc4c5cc(Br)ccc5nn4cc3-c3ccccc3)cc2)CCC1" with Akt1 (Homo sapiens (Human), UniProt P31749): 7.39

Reading of pIC50 for "CNc1c(-c2ccccc2)c(-c2ccc(C3(N)CCC3)cc2)nc2c3cc(F)ccc3nn12" with Akt1 (Homo sapiens (Human), UniProt P31749): 5.58

Reading of pIC50 for "NC1(c2ccc(-c3nc4c5cc(-c6ccn[nH]6)ccc5nn4cc3-c3ccccc3)cc2)CCC1" with Akt1 (Homo sapiens (Human), UniProt P31749): 8.00

Reading of pIC50 for "NC(=O)c1ccc(-c2ccc3c(c2)nn2cc(-c4ccccc4)c(-c4ccc(C5(N)CCC5)cc4)nc32)cc1" with Akt1 (Homo sapiens (Human), UniProt P31749): 7.68

Reading of pIC50 for "NC1(c2ccc(-c3nc4c5cc(-c6ccc(CO)cc6)ccc5nn4cc3-c3ccccc3)cc2)CCC1" with Akt1 (Homo sapiens (Human), UniProt P31749): 7.74

Reading of pIC50 for "COc1cc(-c2ccc3c(c2)nn2cc(-c4ccccc4)c(-c4ccc(C5(N)CCC5)cc4)nc32)ccc1F" with Akt1 (Homo sapiens (Human), UniProt P31749): 6.34

Reading of pIC50 for "NC1(c2ccc(-c3nc4c5cc(-c6ccc(F)c(CO)c6)ccc5nn4cc3-c3ccccc3)cc2)CCC1" with Akt1 (Homo sapiens (Human), UniProt P31749): 8.00

Reading of pIC50 for NC1(c2ccc(-c3nc4c5cccc(Br)c5nn4cc3-c3ccccc3)cc2)CCC1 [Example 8.1, hydrochloride] with Akt1 (Homo sapiens (Human), UniProt P31749): 6.77

Reading of pIC50 for "NC(=O)c1cccc(-c2ccc3c(c2)nn2cc(-c4ccccc4)c(-c4ccc(C5(N)CCC5)cc4)nc32)c1" with Akt1 (Homo sapiens (Human), UniProt P31749): 7.80

Reading of pIC50 for "COC(=O)c1cccc2c1nn1cc(-c3ccccc3)c(-c3ccc(C4(N)CCC4)cc3)nc21" with Akt1 (Homo sapiens (Human), UniProt P31749): 6.13

Reading of pIC50 for "NC1(c2ccc(-c3nc4c5ccc(-c6ccc(O)nc6)cc5nn4cc3-c3ccccc3)cc2)CCC1" with Akt1 (Homo sapiens (Human), UniProt P31749): 7.85

Reading of pIC50 for "N#Cc1ccc(-c2ccc3nn4cc(-c5ccccc5)c(-c5ccc(C6(N)CCC6)cc5)nc4c3c2)cc1" with Akt1 (Homo sapiens (Human), UniProt P31749): 7.01

Reading of pIC50 for NC1(c2ccc(-c3nc4c5ccc(Br)cc5nn4cc3-c3ccccc3)cc2)CCC1 [Example 4.3, hydrochloride] with Akt1 (Homo sapiens (Human), UniProt P31749): 7.06

Reading of pIC50 for "NC(=O)/C=C/c1ccc2nn3cc(-c4ccccc4)c(-c4ccc(C5(N)CCC5)cc4)nc3c2c1" with Akt1 (Homo sapiens (Human), UniProt P31749): 7.52

Reading of pIC50 for "COC(=O)c1ccc(-c2ccc3c(c2)nn2cc(-c4ccccc4)c(-c4ccc(C5(N)CCC5)cc4)nc32)cn1" with Akt1 (Homo sapiens (Human), UniProt P31749): 7.64

Reading of pIC50 for "COC(=O)c1ccc2c(c1)nn1cc(-c3ccccc3)c(-c3ccc(C4(N)CCC4)cc3)nc21" with Akt1 (Homo sapiens (Human), UniProt P31749): 6.95

Reading of pIC50 for "NC1(c2ccc(-c3nc4c5ccc(-c6ccn[nH]6)cc5nn4cc3-c3ccccc3)cc2)CCC1" with Akt1 (Homo sapiens (Human), UniProt P31749): 7.82

Reading of pIC50 for "NC1(c2ccc(-c3nc4c5ccc(-c6ccc(F)cc6)cc5nn4cc3-c3ccccc3)cc2)CCC1" with Akt1 (Homo sapiens (Human), UniProt P31749): 6.64
